- system: human H4 receptor (Homo sapiens (Human))
- run-description: H4 Binding assay ([3H]histamine competition, membranes from CHO-K1 cells transfected with human H4 receptor)
- measurement-context: histamine H4 receptor, comparative compounds; read-out: Ki
assay-readout: Ki (nM)

[I] CN1CCN(c2nc(NCc3cccs3)c3cnc(Cl)cc3n2)CC1 [Example 3P, reference compound]
[II] CN1CCN(c2nc(NCc3cccs3)c3cc(Cl)ncc3n2)CC1
[ask] Returns: the label, I or II , whose recorded Ki is the lower number. Selection: enter the item's label.
[reply] II

----------
- system: human H4 receptor (Homo sapiens (Human), UniProt Q9H3N8)
- run-description: H4 Binding assay ([3H]histamine competition, membranes from CHO-K1 cells transfected with human H4 receptor)
- measurement-context: affinity for human histamine H4 receptor, class symbols; read-out: ACTIVITY CLASS hH4R (Ki)
assay-readout: Ki

Use the examples below as a reference point.
compound	Ki
CN1CCN(c2nc(NCc3ccco3)c3cc(Cl)ncc3n2)CC1 [Example 4]	< 100 nM
CC(C)c1cc2c(NCCc3cccs3)nc(N3CCN(C)CC3)nc2cn1 [Example 53]	< 1000 nM
CN1CCN(c2nc(NCc3cccs3)c3cc(Cl)ncc3n2)CC1 [Example 3]	< 100 nM
Clc1cc2c(NCc3cccs3)nc(N3CCNCC3)nc2cn1 [Example 24]	< 100 nM
CN1CCN(c2nc(NCCc3nccs3)c3cc(Cl)ncc3n2)CC1 [Example 70]	< 1000 nM

[ask] Any idea what its Ki is? The compound is CN1CCN(c2nc(NCCS(=O)(=O)N3CCOCC3)c3cc(Cl)ncc3n2)CC1 [Example 18]
[reply] < 100 nM
